Data origin, for the record: patent US12472193B2

# SYSTEM NAME: TLR 2/1 (Mus musculus, UniProt Q9EPQ1+Q9QUN7)
# Construct: endogenous in cells; host or cells: RAW264.7 (ATCC)
# Sequence (Q9QUN7 25-784): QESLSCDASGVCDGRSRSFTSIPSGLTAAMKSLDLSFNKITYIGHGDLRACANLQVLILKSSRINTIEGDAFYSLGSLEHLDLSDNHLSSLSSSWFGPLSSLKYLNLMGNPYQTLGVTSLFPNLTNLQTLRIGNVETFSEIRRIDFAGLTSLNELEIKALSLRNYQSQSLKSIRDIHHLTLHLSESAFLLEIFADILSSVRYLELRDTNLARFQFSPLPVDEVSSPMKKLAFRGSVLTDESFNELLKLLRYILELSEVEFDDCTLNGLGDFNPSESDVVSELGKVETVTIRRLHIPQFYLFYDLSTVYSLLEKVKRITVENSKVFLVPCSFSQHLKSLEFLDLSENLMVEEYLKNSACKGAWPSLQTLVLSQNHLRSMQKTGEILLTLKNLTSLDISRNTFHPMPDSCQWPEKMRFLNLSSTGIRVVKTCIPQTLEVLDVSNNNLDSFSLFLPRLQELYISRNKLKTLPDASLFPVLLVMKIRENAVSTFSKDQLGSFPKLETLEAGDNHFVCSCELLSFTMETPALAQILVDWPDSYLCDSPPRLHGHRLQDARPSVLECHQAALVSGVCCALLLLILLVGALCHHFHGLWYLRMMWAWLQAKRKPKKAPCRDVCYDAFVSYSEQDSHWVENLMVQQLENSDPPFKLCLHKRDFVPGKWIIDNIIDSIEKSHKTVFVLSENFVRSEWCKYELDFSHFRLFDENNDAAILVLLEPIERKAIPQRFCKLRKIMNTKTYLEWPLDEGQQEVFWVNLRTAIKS
# Sequence (Q9EPQ1 25-795 limits assumed): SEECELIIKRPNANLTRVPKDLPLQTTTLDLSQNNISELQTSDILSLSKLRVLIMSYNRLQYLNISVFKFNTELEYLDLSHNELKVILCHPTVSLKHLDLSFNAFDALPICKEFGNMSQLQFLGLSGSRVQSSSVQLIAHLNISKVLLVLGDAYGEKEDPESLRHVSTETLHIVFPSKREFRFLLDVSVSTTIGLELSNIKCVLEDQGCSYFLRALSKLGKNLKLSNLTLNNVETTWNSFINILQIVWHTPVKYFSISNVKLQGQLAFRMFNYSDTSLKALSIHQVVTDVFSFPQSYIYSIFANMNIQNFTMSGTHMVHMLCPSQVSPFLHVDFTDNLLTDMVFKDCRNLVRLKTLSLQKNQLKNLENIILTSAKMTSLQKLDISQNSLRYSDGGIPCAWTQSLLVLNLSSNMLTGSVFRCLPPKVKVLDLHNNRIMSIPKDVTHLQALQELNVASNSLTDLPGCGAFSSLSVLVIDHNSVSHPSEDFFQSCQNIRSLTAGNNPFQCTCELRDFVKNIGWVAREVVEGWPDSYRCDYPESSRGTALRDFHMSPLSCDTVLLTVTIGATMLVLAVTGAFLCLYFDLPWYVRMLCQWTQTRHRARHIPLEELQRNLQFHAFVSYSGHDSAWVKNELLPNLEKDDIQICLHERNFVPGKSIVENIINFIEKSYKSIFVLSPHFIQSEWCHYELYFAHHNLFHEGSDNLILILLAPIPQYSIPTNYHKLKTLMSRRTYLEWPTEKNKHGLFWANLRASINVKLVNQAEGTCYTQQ
# PROTOCOL DESCRIPTION: Pam3Cys-induced TNFα release by RAW264.7 cells (TLR 2/1 antagonism)
# Format: cell-based
# RUN PARAMETERS: Pam3Cys, 100 μg/mL lipid, 4 hours
EXPERIMENTAL ENDPOINT: suppression of TLR 2/1 activation (TNFα release)

{"COMPOUND": "CCCCCCCCC=CCCCCCCCCOCC(COP(=O)(O)OCC(O)C(O)C(O)CO)OCCCCCCCCC=CCCCCCCCC (mixture of isomers) [18:1 DEPX]", "SYSTEM NAME": "TLR 2/1 (Mus musculus, UniProt Q9EPQ1+Q9QUN7)", "RESULT": "modest antagonists"}
{"COMPOUND": "CCCCCCCC/C=C\\CCCCCCCC(=O)O[C@H](COC(=O)CCCCCCCCCCCCCCC)COP(=O)(O)OCC(O)C(O)C(O)CO (stereo partly shown) [POPX]", "SYSTEM NAME": "TLR 2/1 (Mus musculus, UniProt Q9EPQ1+Q9QUN7)", "RESULT": "modest antagonists"}
